Reference for the values: ChEMBL document CHEMBL1149477

Biological target: Receptor-type tyrosine-protein phosphatase C (Homo sapiens, UniProt P08575)
Sequence (P08575 whole entry): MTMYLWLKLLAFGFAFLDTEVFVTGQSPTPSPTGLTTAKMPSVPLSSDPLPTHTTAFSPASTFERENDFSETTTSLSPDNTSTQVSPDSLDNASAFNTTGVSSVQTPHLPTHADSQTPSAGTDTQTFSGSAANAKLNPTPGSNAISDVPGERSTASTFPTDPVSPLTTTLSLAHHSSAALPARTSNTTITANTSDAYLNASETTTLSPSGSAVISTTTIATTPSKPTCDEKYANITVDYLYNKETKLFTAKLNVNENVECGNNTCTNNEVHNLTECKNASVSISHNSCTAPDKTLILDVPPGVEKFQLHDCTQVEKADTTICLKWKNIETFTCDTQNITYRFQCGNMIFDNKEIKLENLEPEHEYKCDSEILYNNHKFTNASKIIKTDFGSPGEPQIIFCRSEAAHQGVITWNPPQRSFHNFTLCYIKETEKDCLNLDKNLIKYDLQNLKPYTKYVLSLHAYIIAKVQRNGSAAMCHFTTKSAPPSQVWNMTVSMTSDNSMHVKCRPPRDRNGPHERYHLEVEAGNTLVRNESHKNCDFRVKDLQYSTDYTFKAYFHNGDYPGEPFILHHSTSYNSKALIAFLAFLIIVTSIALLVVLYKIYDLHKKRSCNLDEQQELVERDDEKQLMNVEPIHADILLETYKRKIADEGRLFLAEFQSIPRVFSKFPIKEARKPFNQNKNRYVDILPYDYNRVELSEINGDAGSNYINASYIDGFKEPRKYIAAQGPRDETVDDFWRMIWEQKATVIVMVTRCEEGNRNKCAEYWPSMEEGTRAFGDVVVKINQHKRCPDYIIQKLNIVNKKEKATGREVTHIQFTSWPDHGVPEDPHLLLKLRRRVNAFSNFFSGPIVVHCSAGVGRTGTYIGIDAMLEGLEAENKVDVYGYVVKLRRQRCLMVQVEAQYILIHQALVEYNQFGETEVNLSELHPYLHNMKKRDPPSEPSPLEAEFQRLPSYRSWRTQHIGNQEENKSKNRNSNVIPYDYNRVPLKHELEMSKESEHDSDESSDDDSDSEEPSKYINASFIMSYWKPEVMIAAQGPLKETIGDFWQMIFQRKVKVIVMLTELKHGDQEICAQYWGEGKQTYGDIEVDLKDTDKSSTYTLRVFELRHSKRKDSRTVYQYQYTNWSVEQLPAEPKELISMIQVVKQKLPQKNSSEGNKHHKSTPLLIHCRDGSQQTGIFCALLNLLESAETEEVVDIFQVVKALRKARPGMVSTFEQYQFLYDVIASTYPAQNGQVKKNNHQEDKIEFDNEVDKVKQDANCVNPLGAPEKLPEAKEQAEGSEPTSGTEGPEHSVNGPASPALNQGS
recorded.metric: Ki (µM)

I. CN(C)c1ccc(-c2sc(C(=O)O)c(OCC(=O)O)c2Br)cc1
II. O=C(O)COc1c(C(=O)O)sc(-c2ccccc2)c1Br
Task for the reader: decide whether I or II has the larger Ki. Indicate which entry you chose by stating its label. I
(I: 64 µM, II: 26 µM)
